Cited source for all entries: the RNAGym collection of RNA variant scans (doi:10.7554/elife.80360)

B1: Hairpin Ribozyme (parent)
chain: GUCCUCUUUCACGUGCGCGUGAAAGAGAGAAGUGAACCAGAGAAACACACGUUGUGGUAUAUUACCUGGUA

Variants of: B1
Test: self-cleavage, relative activity (ratio to wild type); higher = more cleavage; co-transcriptional
Field: self-cleavage. Provide a value for each of the variants that follow.

*Q* Any idea what self-cleavage was measured for C4U C37A ?
*A* 0.158

*Q* State the recorded self-cleavage for this entry: C16A U70C
*A* 0.978

*Q* Would you mind telling me what self-cleavage value was observed for G27C C48A ?
*A* 0.0978

*Q* // self-cleavage lookup, key: C6U G25U
*A* 0.762

*Q* Requested field: self-cleavage. Item: G54A U67G
*A* 0.157

*Q* Need self-cleavage of C12U A36G , thanks.
*A* 1.17

*Q* Would you kindly share the measured self-cleavage for G19C U62A ?
*A* 0.228

*Q* Bench note: what self-cleavage did C3G G15A show?
*A* 0.281

*Q* Fill in: self-cleavage of G42U G56C is ___
*A* 0.147

*Q* What value of self-cleavage has been recorded for this entry: A30G A41G
*A* 0.112

*Q* Which measured self-cleavage value corresponds to G27A A59C ?
*A* 0.103

*Q* Request the reported self-cleavage associated with G42C G54C
*A* 0.113

*Q* Item under review: A35U A39G . Reported self-cleavage?
*A* 0.433

*Q* Reported self-cleavage for U8C G15A : what is it?
*A* 0.743

*Q* Please report the recorded self-cleavage for C12G G69A .
*A* 0.284

*Q* Suppose we examine the variant G27U A59C ; what self-cleavage value has been reported?
*A* 0.0836

*Q* Record request: self-cleavage value, item U9G U52A
*A* 0.705

*Q* Any idea what self-cleavage was measured for A36C C38U ?
*A* 0.274

*Q* What measured self-cleavage goes with U2A C10A ?
*A* 0.132

*Q* Field request: self-cleavage | item: A43G C65G
*A* 0.117

*Q* Data request, read-out self-cleavage, for C4G A71C
*A* 0.483

*Q* Which value of self-cleavage has been reported for A49C U60A in the records?
*A* 0.333
